The reader will find reported IC50 values listed item by item below.
Molecular target: UniProt P31650
Sequence (P31650 whole entry): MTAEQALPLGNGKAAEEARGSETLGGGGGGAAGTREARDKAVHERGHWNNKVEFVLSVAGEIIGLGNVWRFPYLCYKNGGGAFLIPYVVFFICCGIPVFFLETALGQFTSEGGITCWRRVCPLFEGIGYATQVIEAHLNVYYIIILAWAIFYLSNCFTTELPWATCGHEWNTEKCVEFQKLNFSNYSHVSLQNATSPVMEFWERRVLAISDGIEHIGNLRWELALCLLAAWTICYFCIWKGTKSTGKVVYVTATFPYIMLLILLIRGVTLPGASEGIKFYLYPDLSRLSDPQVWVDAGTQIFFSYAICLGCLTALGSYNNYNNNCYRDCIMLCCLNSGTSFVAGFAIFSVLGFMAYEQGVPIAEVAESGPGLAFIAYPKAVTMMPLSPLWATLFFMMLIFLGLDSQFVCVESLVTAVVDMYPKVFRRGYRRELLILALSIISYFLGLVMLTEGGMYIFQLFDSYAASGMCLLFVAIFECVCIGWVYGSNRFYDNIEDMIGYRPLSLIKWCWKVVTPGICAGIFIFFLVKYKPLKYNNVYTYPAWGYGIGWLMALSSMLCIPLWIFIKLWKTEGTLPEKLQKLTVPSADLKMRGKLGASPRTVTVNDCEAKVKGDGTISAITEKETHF
Test: Inhibition of mouse GAT4 expressed in HEK293 cells assessed as reduction in [3H]GABA uptake preincubated for 25 mins followed by [3H]GABA addition and measured after 4 mins by liquid scintillation counting method
MEASURED PARAMETER: IC50 (µM)

[[record]]
compound = "O=C(O)[C@H]1CNC[C@@H](CCN/N=C/c2ccc(-c3ccc(C(F)(F)F)cc3Cl)o2)C1 (racemic)"
units_label = "µM"
experimental_result = 41.7

[[record]]
compound = "O=C(O)[C@H]1CNC[C@@H](CCN/N=C/c2ccc(-c3ccc(Cl)cc3Cl)o2)C1 (racemic)"
units_label = "µM"
experimental_result = 15.1

[[record]]
compound = "O=C(O)[C@H]1CNC[C@@H](CN/N=C/c2ccc(-c3cccc4ccccc34)o2)C1 (racemic)"
units_label = "µM"
experimental_result = 75.9

